The measured values listed here are drawn from patent US20110269834A1.

# System Name: hUCH-L3 (Homo sapiens)
# Construct: purchased Biomol International
# Sequence (P15374 whole entry): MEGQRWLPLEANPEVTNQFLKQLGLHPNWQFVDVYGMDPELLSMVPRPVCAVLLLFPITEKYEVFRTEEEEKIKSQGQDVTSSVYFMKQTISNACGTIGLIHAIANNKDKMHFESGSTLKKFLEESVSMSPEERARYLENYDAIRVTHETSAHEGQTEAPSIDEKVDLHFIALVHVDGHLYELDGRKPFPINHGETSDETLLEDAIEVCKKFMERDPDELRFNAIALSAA
# Experimental Details: Inhibitor specificity assay, UCH-L3
# Assay type: biochemical
# Assay Context: Table 6; assayed with 100 μM inhibitor, ubiquitin-AMC substrate
Readout Kind: IC50

For orientation, consider the following solved cases.
{"columns": ["Compound", "Observed"],
 "data": [
  ["Cc1ccc(N)cc1C(=O)N[C@H](C)c1cccc2ccccc12 [Compound 24]", "> 100 µM"],
  ["Cc1ccccc1C(=O)N[C@H](C)c1cccc2ccccc12 [Compound 5h]", "> 100 µM"]
]}

Notebook: CC(=O)Nc1ccc(C)c(C(=O)N[C@H](C)c2cccc3ccccc23)c1 [Compound 25] , IC50 read as > 100 µM

----------
Field: pEC50. Provide a value for each of the compounds that follow.
# Tested on: SARS-CoV
# Experimental Details: microbe, parasite or virus in culture
# Type: cell-based, SARS-CoV Urbani strain
# Assay Context: Severe acute respiratory syndrome coronavirus, Vero C1008
Numbers only, as −log10 of the molar value.

{"columns": ["Item Smiles", "pEC50"],
 "data": [
  ["COc1ccc(CNC(=O)C2CCN([C@H](C)c3cccc4ccccc34)CC2)cc1", 5.00],
  ["COc1cccc(CNC(=O)C2CCN([C@H](C)c3cccc4ccccc34)CC2)c1", 5.10]
]}

As a next step, examine the compound that follows.
Notebook: CC(=O)Nc1ccc(C)c(C(=O)N[C@H](C)c2cccc3ccccc23)c1 , pEC50 read as 4.88

----------
# System Name: SARS-CoV PLpro (Severe acute respiratory syndrome coronavirus)
# Experimental Details: biochemical
pIC50: −log10 of the molar value.
Would you please tag the item condition met when its pIC50 is 5 or above, and condition not met when it is below?

Below are worked cases with known answers.
{"columns": ["Compound", "System Name", "Label Value"],
 "data": [
  ["CCC(NC(=O)c1ccccc1C)c1ccc2ccccc2c1 (racemic)", "SARS-CoV PLpro (Severe acute respiratory syndrome coronavirus)", "condition not met"],
  ["C[C@@H](NC(=O)c1ccccc1O)c1ccc2ccccc2c1", "SARS-CoV PLpro (Severe acute respiratory syndrome coronavirus)", "condition not met"],
  ["COc1cccc(CNC(=O)C2CCN([C@H](C)c3ccc4ccccc4c3)CC2)c1", "SARS-CoV PLpro (Severe acute respiratory syndrome coronavirus)", "condition met"]
]}

[in] Quick check, pIC50 >= 5? Cc1cc(N)ccc1C(=O)NC(C)c1ccnc2ccccc12 (racemic)
[out] condition met

[in] Quick check, pIC50 >= 5? Cc1ccc(N)cc1C(=O)NC(C)c1ccnc2ccccc12 (racemic)
[out] condition met

[in] Quick check, pIC50 >= 5? C[C@@H](NC(=O)c1ccccc1Cl)c1ccc2ccccc2c1
[out] condition not met

[in] Quick check, pIC50 >= 5? CCc1ccccc1C(=O)N[C@H](C)c1ccc2ccccc2c1
[out] condition not met

[in] Quick check, pIC50 >= 5? Cc1cc([N+](=O)[O-])ccc1C(=O)NC(C)c1ccnc2ccccc12 (racemic)
[out] condition met

[in] Quick check, pIC50 >= 5? C[C@@H](NC(=O)c1ccc(NC(=O)OC(C)(C)C)cc1)c1ccc2ccccc2c1
[out] condition not met

----------
# System Name: SARS-CoV PLpro (Severe acute respiratory syndrome coronavirus, UniProt P0C6X7)
# Experimental Details: biochemical
# Assay Context: read-out: IC50
Field: IC50. Provide a value for each of the molecules that follow.
Give the figure together with its unit, number first.

For orientation, consider the following solved cases.
{"columns": ["Item Smiles", "IC50"],
 "data": [
  ["CC(=O)Nc1ccc(C)c(C(=O)N[C@H](C)c2cccc3ccccc23)c1", "2640 nM"],
  ["COc1ccccc1CNC(=O)C1CCN([C@H](C)c2cccc3ccccc23)CC1", "1210 nM"],
  ["COc1ccc(CNC(=O)C2CCN([C@H](C)c3cccc4ccccc34)CC2)cc1", "340 nM"],
  ["C[C@@H](c1cccc2ccccc12)N1CCC(C(=O)NCc2ccc3c(c2)OCO3)CC1", "560 nM"]
]}

As a next step, examine the molecule that follows.
Notebook: COc1cccc(CNC(=O)C2CCN([C@H](C)c3cccc4ccccc34)CC2)c1 , IC50 read as 340 nM
